# Study Target: human ether-à-go-go-related gene (hERG) potassium channel (human, UniProt Q12809);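 note: peak tail current of the secondary pulse compared with the same well before compound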
# Sequence (Q12809 whole entry, looked up): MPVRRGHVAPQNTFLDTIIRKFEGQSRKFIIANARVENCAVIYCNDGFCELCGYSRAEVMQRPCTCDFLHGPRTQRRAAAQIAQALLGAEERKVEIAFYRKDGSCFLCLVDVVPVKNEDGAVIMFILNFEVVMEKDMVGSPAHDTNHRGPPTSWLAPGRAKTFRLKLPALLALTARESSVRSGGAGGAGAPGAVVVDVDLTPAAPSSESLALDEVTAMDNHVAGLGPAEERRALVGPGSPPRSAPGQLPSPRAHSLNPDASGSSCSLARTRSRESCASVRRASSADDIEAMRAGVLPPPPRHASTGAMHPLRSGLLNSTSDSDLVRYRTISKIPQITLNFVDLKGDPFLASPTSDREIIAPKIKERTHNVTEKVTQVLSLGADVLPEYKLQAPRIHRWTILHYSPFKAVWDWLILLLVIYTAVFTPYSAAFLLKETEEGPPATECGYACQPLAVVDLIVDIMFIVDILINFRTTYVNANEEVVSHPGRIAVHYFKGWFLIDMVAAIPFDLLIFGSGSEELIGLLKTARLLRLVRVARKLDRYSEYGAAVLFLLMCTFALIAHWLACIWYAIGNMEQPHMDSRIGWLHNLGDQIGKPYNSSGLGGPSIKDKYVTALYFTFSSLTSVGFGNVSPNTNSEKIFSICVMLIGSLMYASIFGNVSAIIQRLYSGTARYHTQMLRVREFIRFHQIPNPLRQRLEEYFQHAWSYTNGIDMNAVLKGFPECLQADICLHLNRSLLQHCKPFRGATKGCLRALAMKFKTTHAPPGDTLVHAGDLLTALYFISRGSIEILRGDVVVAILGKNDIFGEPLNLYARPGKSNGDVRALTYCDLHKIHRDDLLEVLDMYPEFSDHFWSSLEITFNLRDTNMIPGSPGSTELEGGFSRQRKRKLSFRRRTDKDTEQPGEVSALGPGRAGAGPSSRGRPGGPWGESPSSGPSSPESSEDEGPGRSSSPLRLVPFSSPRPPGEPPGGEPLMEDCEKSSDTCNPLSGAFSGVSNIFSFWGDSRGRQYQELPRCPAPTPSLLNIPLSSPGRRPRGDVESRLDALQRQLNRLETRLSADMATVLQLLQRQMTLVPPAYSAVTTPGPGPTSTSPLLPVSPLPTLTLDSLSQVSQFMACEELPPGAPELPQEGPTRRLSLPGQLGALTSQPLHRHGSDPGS
# Method: primary screen, population patch clamp on CHO cells stably expressing hERG; higher = less effect of the substance
The campaign covered roughly 310,000 compounds. About 14,000 (4.5%) showed an effect of 50% or more. The effect is printed as a negative number. This excerpt belongs to a sample that is enriched for strong results.
Measured Endpoint: hERG current change (%, negative = inhibition) at 10uM (%)
Report as a plain number; the unit % is understood.

-- ask Query: hERG current change (%, negative = inhibition) at 10uM; subject: Cl.c1ccc2c(NCC3CCCO3)nc(N3CCOCC3)nc2c1 (stereo not shown)
-- reply -49.5

-- ask Query: hERG current change (%, negative = inhibition) at 10uM; subject: CCCCCOc1ccc(CSC(=N)N)cc1[N+](=O)[O-].Cl
-- reply -56.7

-- ask Query: hERG current change (%, negative = inhibition) at 10uM; subject: O=C(c1ccco1)N1CCN(C(=O)C2Cc3ccccc3CN2S(=O)(=O)c2ccc(F)cc2)CC1 (stereo not shown)
-- reply -70.6

-- ask Query: hERG current change (%, negative = inhibition) at 10uM; subject: CC1CN(C(=O)c2cccc(S(=O)(=O)N3CCN(c4ccc(F)cc4)CC3)c2)CC(C)O1 (stereo not shown)
-- reply -45.4
